# assayInfo: NCI Yeast Anticancer Drug Screen. Data for the cln2 rad14 strain (AID 165);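 note: 0% = growth equal to vehicle treated cultures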
# studyConditions: S. cerevisiae cln2 rad14 strain, at 50.0 µM, active compounds read high
This is part of a sample that, as a whole, favours compounds with a hit. Of some 79,000 tested, about 15% had one in any assay.
I'd appreciate it if you could supply growth inhibition values for the items below.
Could you give me the number in %? Just the number is fine.

Kindly indicate its recorded growth inhibition. Item: CC(C)N(CCO)CC(O)Cn1cnc2c(N)ncnc21 (stereo not given) (tested in a mixture with another compound)
40.2

Kindly indicate its recorded growth inhibition. Item: O=[N+]([O-])c1ccc(NC(=S)N/N=C(\c2ccccc2)c2ccccn2)cc1
72.1

Kindly indicate its recorded growth inhibition. Item: CSc1cc(Cl)c(C)cc1S(=O)(=O)NC(=O)Nc1ccc(Cl)cc1
98.7

Kindly indicate its recorded growth inhibition. Item: COC(=O)c1ccccc1NC(=O)C(=O)Cc1nc2c3c(ccc2[nH]c1=O)C(=O)c1ccccc1C3=O
-26.9

Kindly indicate its recorded growth inhibition. Item: COc1cc(CSc2ccc(O)cc2)cc(OC)c1OC
50

Kindly indicate its recorded growth inhibition. Item: CCC(C)OC(=O)c1cccc(C)c1 (stereo not given)
38.5

Kindly indicate its recorded growth inhibition. Item: S=C(Nc1ccc(Cl)c(Cl)c1)N1c2ccccc2-n2cccc2C1c1cccnc1 (stereo not given)
84.7

Kindly indicate its recorded growth inhibition. Item: O=C(CC(c1ccccc1)c1ccccc1)NCCCCN1CCCCCCC1
89.7

Kindly indicate its recorded growth inhibition. Item: Cc1ccc2c(c1)-c1c(c3c(c4c1-c1cc(C)ccc1CC4)C(=O)OC3=O)CC2
3.45

Kindly indicate its recorded growth inhibition. Item: CC(=O)Nc1cc(F)c2c(c1)Cc1ccccc1-2
89.4

The measured values listed here are drawn from PubChem BioAssay (NCI).
